# procedure_text: Plasma concentration and brain content after a single oral dose by gavage
# Assay type: in vivo, mouse
# settings: female, mouse, plasma; 200 mg/kg single oral dose by gavage, BALB/c mice, 0 hr; read-out: Plasma concentration
quantity: concentration at 0 hr (ng/mL)
Give bare numbers, in ng/mL.

// query Entry COc1cccc(/C=N/N(C(=O)C(F)(F)F)c2ccc(C)cc2C)c1 has what concentration at 0 hr?
// result 0

---

# procedure_text: Plasma concentration and brain content after a single oral dose by gavage
# Format: in vivo, mouse
# settings: female, mouse, brain; 200 mg/kg single oral dose by gavage, BALB/c mice, 2 hr; read-out: Brain content
quantity: concentration at 2 hr (ng/g)
One number for each entry, in ng/g.

// query Entry COc1cccc(/C=N/N(C(=O)C(F)(F)F)c2ccc(C)cc2C)c1 [Compound J147] has what concentration at 2 hr?
// result 2800
